Hey, just so you know, these numbers are from patent US20250034256A1.

Could you please report measured kon for the items listed next?
Test target: T1, Histidine-tagged human PD-1 protein (hPD-1-His) (human, UniProt Q15116 25-170, limits assumed)
T1 construct: Soluble analyte in SPR; not shown: histidine tag
T1 sequence (Q15116 25-170 limits assumed): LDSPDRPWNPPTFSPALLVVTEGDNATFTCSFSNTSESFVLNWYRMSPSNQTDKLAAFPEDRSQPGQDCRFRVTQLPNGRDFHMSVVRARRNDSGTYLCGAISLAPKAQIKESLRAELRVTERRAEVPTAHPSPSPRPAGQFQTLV
Method notes: SPR (Biacore T200), antibody captured on Protein A chip, hPD-1-His analyte, 1:1 fit
Answer shape: numeric part, then the unit.

[Q] kon for 3F1-H4K2-IgG4-S228P (antibody, V domains shown, Humanized; human IgG4 constant domains with S228P (EU numbering)) VH: QVQLQQSGAEVAKPGASVKMSCKASGYTFTSYWMHWVKQRPGQGLEWIGYINPSTGYTEYNQKFKDRATLTADKSTSTAYMELSSLTSEDTAVYYCARGVRYYFDYWGQGTLLTVSS VL: DIVMTQSPDSLAVSLGERATMSCKSSQSLLNSRTRKNYLAWYQQKPGQSPKLLIYWASTRESGVPDRFSGSGSGTDFTLTISSVQAEDVAVYYCKQSYNLLTFGQGTKLELK ?
[A] 4800 M⁻¹ s⁻¹

[Q] kon for 1A7-H3K2-IgG4-S228P (antibody, V domains shown, Humanized; human IgG4 constant domains with S228P (EU numbering)) VH: EVKLVESGGGLVQPGGSLRLSCAASGFTFSSYSMSWVRQAPGKRLEWVAHISSGGSSTYYPDTVKGRFTISRDNSKNTLYLQMNSLRAEDTAMYYCTRQFYYGSSFWYFDVWGAGTTVTVSS VL: DNVLTQSPATLSVSPGERATLSCKASQSVDFDGDSYMNWYQQKPGQPPRLLIYAASNLESGIPARFSGSGPGTDFTLTISSLEPEDFATYYCQQSNEDPPTFGGGTKVEIK ?
[A] 48100 M⁻¹ s⁻¹
